The reported numbers originate from patent US9115093B2.

Recorded measurements of IC50, one per entry
Biological target: neutrophil elastase (Homo sapiens, UniProt P08246)
Sequence (P08246 30-247 limits assumed): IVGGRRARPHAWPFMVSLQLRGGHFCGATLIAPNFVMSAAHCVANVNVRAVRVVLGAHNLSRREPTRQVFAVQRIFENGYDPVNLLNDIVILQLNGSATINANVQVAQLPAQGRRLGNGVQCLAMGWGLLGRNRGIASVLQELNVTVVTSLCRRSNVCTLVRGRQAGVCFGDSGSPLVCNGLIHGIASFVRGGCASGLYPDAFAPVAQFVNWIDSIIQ
Assay: Human Neutrophil Elastase Assay
Settings: substrate MeOSuc-Ala-Ala-Pro-Val-AMC, pH 7.5, room temperature
Your answer should be a plain number; it is taken to be in µM.

1. COCCN(C)C(=O)CN1C(=O)N(c2cccc(C(F)(F)F)c2)C2=C(C(=O)CCC2)C1c1ccc(C#N)cc1 (centres unmarked); 0.0066
2. N#Cc1ccc(C2NC(=O)N(c3cc(F)cc(C(F)(F)F)c3)C3=C2C(=O)CCC3)cc1 (centres unmarked); 0.0138

Prompt line: Endpoint output: IC50 of N#Cc1ccc(C2C3=C(CCCC3=O)N(c3cccc(C(F)(F)F)c3)C(=O)N2CC(=O)NC2CCOC2)cc1 (centres unmarked) . Value?
Response line: 0.0106

----------
# pIC50 annotations
Molecular target: neutrophil elastase (Homo sapiens, UniProt P08246)
Test: Human Neutrophil Elastase Assay
Details: substrate MeOSuc-Ala-Ala-Pro-Val-AMC, pH 7.5, room temperature
pIC50: −log10 of the molar value.

The following compounds have reported results that may help.
1) C[S+]([O-])CCNC(=O)N1C(=O)N(c2cccc(C(F)(F)F)c2)C2=C(C(=O)CCC2)C1c1ccc(C#N)cc1 (stereo not drawn) [Example 39.12]; > 9.00
2) N#Cc1ccc(C2C3=C(CCCC3=O)N(c3cccc(C(F)(F)F)c3)C(=O)N2C(=O)NC2CCS(=N)(=O)CC2)cc1 (stereo not drawn) [Example 72]; > 9.00

Prompt line: So what pIC50 did CS(=O)(=O)c1cc(C#N)ccc1[C@@H]1C2=C(CCCC2=O)N(c2cccc(C(F)(F)F)c2)C(=O)N1C(=O)NC1COC1 [Example 75.5] get with neutrophil elastase (Homo sapiens, UniProt P08246)?
Response line: > 9.00

----------
Below: a set of entries, each annotated with reported IC50.
Target: neutrophil elastase (Homo sapiens, UniProt P08246)
Assay: Human Neutrophil Elastase Assay
Details: substrate MeOSuc-Ala-Ala-Pro-Val-AMC, pH 7.5, room temperature
Procedure: Human Neutrophil Elastase Assay Materials: Human neutrophil elastase was purchased from Calbiochem (Cat.No.: 324681) and the elastase substrate MeOSuc-Ala-Ala-Pro-Val-AMC from Bachem (Cat.No.: I-1270). […] Assay conditions: Test compounds were prediluted in DMSO and subsequently in compound buffer (5% DMSO final). […] After inactivation of the enzyme, fluorescence intensities were measured at 380 nm excitation and 460 nm emission wavelengths. […]

Here's what some known entries look like.
1. CC(C)(O)CNC(=O)N1C(=O)N(c2cccc(C(F)(F)F)c2)C2=C(C(=O)CCC2)[C@H]1c1ccc(C#N)cc1S(C)(=O)=O; < 1 nM
2. CNC(=O)N1C(=O)N(c2cccc(C(F)(F)F)c2)C2=C(C(=O)CCC2)C1c1ccc(C#N)cc1C (stereo not shown); < 1 nM
3. N#Cc1ccc(C2C3=C(CCCC3=O)N(c3cccc(C(F)(F)F)c3)C(=O)N2C(=O)NCCCO)cc1 (stereo not shown); < 1 nM
4. N#Cc1ccc(C2C3=C(CCCC3=O)N(c3cccc(C(F)(F)F)c3)C(=O)N2C(=O)NC2COC2)cc1 (stereo not shown); < 1 nM

Prompt line: Which IC50 value belongs to CS(=O)(=O)c1ccc(CNC(=O)N2C(=O)N(c3cccc(C(F)(F)F)c3)C3=C(C(=O)CCC3)C2c2ccc(C#N)cc2)nc1 (stereo not shown) ?
Response line: < 1 nM

Prompt line: Need IC50, item N#Cc1ccc(C2C3=C(CCCC3=O)N(c3cccc(C(F)(F)F)c3)C(=O)N2C(=O)NC2CCOCC2)cc1 (stereo not shown)
Response line: < 1 nM
